Tested on: CCL2
Assay: Mouse CCL2 assay in MLE12 cells
Format: cell-based
Conditions: Mus musculus, MLE12, 30 h, read-out: CCL2 (EC50, nM)
Description: Cisbio mouse CCL2 assay is intended for the quantitative measurement of CCL2 in supernatant using HTRF® technology. The assay is compatible with mouse samples, and is highly specific for CCL2. CCL2 is detected in a sandwich assay format using 2 different specific antibodies, one labeled with Cryptate (donor) and the second with d2 (acceptor). […] MLE12 cells in flasks were washed once with PBS, detached with Trypsin/EDTA, resuspended in fresh medium and counted. […]
measurement-kind: EC50 (nM)

| molecule | experimental-value |
| --- | --- |
| Cc1cc(NC(=O)N2C3CCC2CC(n2c(=O)[nH]c4c(Br)cccc42)C3)ccc1I (stereo not shown) | 23900 |
| O=C(Nc1ccc(Cl)c(Cl)c1)N1C2CCC1CC(n1c(=O)[nH]c3c(Br)cccc31)C2 (stereo not shown) | 21500 |
| COc1cc(NC(=O)N2C3CCC2CC(n2c(=O)[nH]c4c(Br)cccc42)C3)ccc1C (stereo not shown) | 39200 |
| O=C(Nc1ccc(Cl)c(F)c1)N1C2CCC1CC(n1c(=O)[nH]c3c(Br)cccc31)C2 (stereo not shown) | 19400 |

###

For reference, log10 IC50 measured on OGG1 (Homo sapiens (Human)):
measurement-kind: log10 IC50 (log10 of the value in nM)

| smiles-str | experimental-value |
| --- | --- |
| Cc1cc(NC(=O)[C@H]2CC[C@@H](n3c(=O)[nH]c4c(Br)cccc43)CC2)ccc1F | 2.70 |
| COc1cc(F)cc(NC(=O)[C@H]2CC[C@@H](n3c(=O)[nH]c4c(Br)cccc43)CC2)c1 | 3.26 |
| COc1cc(NC(=O)[C@H]2CC[C@@H](n3c(=O)[nH]c4c(NCC(F)F)cccc43)CC2)ccc1C | 1.99 |
| COc1ccc(NC(=O)[C@H]2CC[C@@H](n3c(=O)[nH]c4c(Br)cccc43)CC2)cc1C#N | 2.24 |
| O=c1[nH]c2c(Br)cccc2n1[C@H]1CC[C@@H](C(=O)Nc2ccc(OC(F)(F)F)c(Cl)c2)CC1 | 3.44 |
| O=c1[nH]c2c(Br)cccc2n1[C@H]1CC[C@@H](C(=O)Nc2cnc(Cl)c(Cl)c2)CC1 | 3.14 |
| COc1cc(NC(=O)[C@H]2CC[C@@H](n3c(=O)[nH]c4c(C5=CCNCC5)cccc43)CC2)ccc1C | 0.65 |

###

molecular target: OGG1 (Homo sapiens (Human)); assay: In vitro OGG1 activity assay; assay type: biochemical; settings: 800 pM OGG1 enzyme, 2 nM human APEX1, 10 nM 8-oxoA:C substrate
Sequence (O15527 whole entry): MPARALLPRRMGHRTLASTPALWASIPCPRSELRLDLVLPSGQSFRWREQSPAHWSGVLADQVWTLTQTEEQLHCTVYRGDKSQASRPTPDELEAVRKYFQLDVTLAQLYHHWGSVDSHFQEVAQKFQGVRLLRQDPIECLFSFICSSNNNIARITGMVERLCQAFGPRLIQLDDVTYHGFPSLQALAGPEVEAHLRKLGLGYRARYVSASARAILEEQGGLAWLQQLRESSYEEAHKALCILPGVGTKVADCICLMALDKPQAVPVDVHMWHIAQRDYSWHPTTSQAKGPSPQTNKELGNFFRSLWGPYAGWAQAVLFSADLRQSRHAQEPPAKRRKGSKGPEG
pIC50: −log10 of the molar value.

| compound | pIC50 |
| --- | --- |
| Cc1nc(NC(=O)N2CCC(n3c(=O)[nH]c4c(Br)cccc43)CC2)ccc1Cl | 5.24 |
| COc1cc(NC(=O)N2CCC(n3c(=O)[nH]c4c(Cl)cccc43)CC2)ccc1C | 6.16 |
| O=c1[nH]c2c(Br)cccc2n1[C@H]1CC[C@@H](C(=O)Nc2ccc3c(c2)OCO3)CC1 | 7.39 |
| COc1ccc(NC(=O)[C@H]2CC[C@@H](n3c(=O)[nH]c4c(Br)cccc43)CC2)cc1 | 7.60 |
| COc1cc(NC(=O)[C@H]2CC[C@@H](n3c(=O)[nH]c4c(C(=O)NCc5ncc[nH]5)cccc43)CC2)ccc1C | 9.41 |
| COc1cc(NC(=O)[C@H]2CC[C@@H](n3c(=O)[nH]c4c(C(=O)N(C)C)cccc43)CC2)ccc1C | 6.46 |
| CN(C)c1cccc(NC(=O)[C@H]2CC[C@@H](n3c(=O)[nH]c4c(Br)cccc43)CC2)c1 | 5.27 |
| COc1cc(NC(=O)N2C3CCC2CC(n2c(=O)[nH]c4c(Br)cccc42)C3)ccc1C (stereo not drawn) | 7.48 |
| COc1cc(NC(=O)[C@H]2CC[C@@H](n3c(=O)[nH]c4c(NC(=O)c5nccn5C)cccc43)CC2)ccc1C | 7.10 |
| COc1cc(NC(=O)[C@H]2CC[C@@H](n3c(=O)[nH]c4c(C(=O)N5CCN(C)CC5)cccc43)CC2)ccc1C | 6.82 |
| COc1cc(NC(=O)[C@H]2CC[C@@H](n3c(=O)[nH]c4c(NC(=O)C5CNCCO5)cccc43)CC2)ccc1C (stereo partly drawn) | 7.29 |
| COc1cc(NC(=O)[C@H]2CC[C@@H](n3c(=O)[nH]c4c(C(=O)NCCO)cccc43)CC2)ccc1C | 8.57 |
| COc1cc(NC(=O)[C@H]2CC[C@@H](n3c(=O)[nH]c4c(C(=O)NCC5CCCN5)cccc43)CC2)ccc1C (stereo partly drawn) | 9.68 |
| O=C(Nc1ccc(I)cc1)N1CCC(n2c(=O)[nH]c3c(-n4cncn4)cccc32)CC1 | 6.14 |
| COc1cc(NC(=O)N2C3CCC2CC(n2c(=O)[nH]c4c(-c5ccc(CO)nc5)cccc42)C3)ccc1Cl (stereo not drawn) | 7.04 |
| Cc1cccc(NC(=O)[C@H]2CC[C@@H](n3c(=O)[nH]c4c(Br)cccc43)CC2)c1 | 5.92 |
| O=c1[nH]c2c(Cl)cccc2n1[C@H]1CC[C@@H](C(=O)Nc2ccc(Cl)cc2)CC1 | 6.97 |
| COc1ccc(NC(=O)N2CCC(n3c(=O)[nH]c4c(N)cccc43)CC2)cc1Cl | 5.60 |
| O=C(Nc1ccc(I)cc1)N1CCC(n2c(=O)[nH]c3c(Br)cccc32)CC1 | 6.44 |
| Cc1cc(N)c(NC(=O)[C@H]2CC[C@@H](n3c(=O)[nH]c4c(Br)cccc43)CC2)cc1C | 5.78 |
| COc1cc(NC(=O)N2C3CCC2CC(n2c(=O)[nH]c4c(-c5ccc(CO)nc5)cccc42)C3)ccc1C (stereo not drawn) | 7.08 |
| COc1ccc(NC(=O)N2CCC(n3c(=O)[nH]c4cc(C#N)ccc43)CC2)cc1Cl | 5.16 |
| O=c1[nH]c2c(Br)cccc2n1[C@H]1CC[C@@H](C(=O)Nc2ccc(Cl)cc2Cl)CC1 | 6.17 |
| Nc1cccc(-c2cccc3c2[nH]c(=O)n3C2CCN(C(=O)Nc3ccc(Cl)c(Cl)c3)CC2)c1 | 5.69 |
| COc1cc(NC(=O)[C@H]2CC[C@@H](n3c(=O)[nH]c4c(NC(=O)c5cc(C)on5)cccc43)CC2)ccc1C | 8.00 |
| COc1cc(NC(=O)N2CCC(n3c(=O)[nH]c4c(OC)cccc43)CC2)ccc1C | 5.69 |
| COc1cc(NC(=O)[C@H]2CC[C@@H](n3c(=O)[nH]c4c(C(=O)NC5CCNC5)cccc43)CC2)ccc1C (stereo partly drawn) | 8.92 |
| Cn1c(NC(=O)[C@H]2CC[C@@H](n3c(=O)[nH]c4c(Br)cccc43)CC2)nc2ccccc21 | 7.57 |
| Cc1ccc2c(c1)[nH]c(=O)n2C1CCN(C(=O)Nc2ccc(I)cc2)CC1 | 5.75 |
| COc1ccc(NC(=O)[C@H]2CC[C@@H](n3c(=O)[nH]c4c(F)cccc43)CC2)cc1F | 6.81 |

###

For reference, IC50 measured on OGG1 (Homo sapiens (Human)):

| smiles-str | measured-target | unit-abbrev | IC50 |
| --- | --- | --- | --- |
| COc1ccc(NC(=O)[C@H]2CC[C@@H](n3c(=O)[nH]c4c(Br)cccc43)CC2)cc1OC | OGG1 (Homo sapiens (Human)) | nM | 34.2 |
| COc1cc(NC(=O)[C@H]2CC[C@@H](n3c(=O)[nH]c4c(Br)cccc43)CC2)ccc1Cl | OGG1 (Homo sapiens (Human)) | nM | 71 |
| COc1cc(NC(=O)[C@H]2CC[C@@H](n3c(=O)[nH]c4c(C(=O)NCCN)cccc43)CC2)ccc1C | OGG1 (Homo sapiens (Human)) | nM | 0.62 |
| COc1cc(NC(=O)[C@H]2CC[C@@H](n3c(=O)[nH]c4c(Br)cccc43)CC2)cc(C(F)(F)F)c1 | OGG1 (Homo sapiens (Human)) | nM | 6050 |
| COc1cc(NC(=O)[C@H]2CC[C@@H](n3c(=O)[nH]c4c(C(=O)N5CCC[C@H]5CN5CCCC5)cccc43)CC2)ccc1C | OGG1 (Homo sapiens (Human)) | nM | 56 |
| Cc1cc(NC(=O)[C@H]2CC[C@@H](n3c(=O)[nH]c4c(Br)cccc43)CC2)ccc1O | OGG1 (Homo sapiens (Human)) | nM | 17.2 |
| Nc1cccc(NC(=O)[C@H]2CC[C@@H](n3c(=O)[nH]c4c(Br)cccc43)CC2)c1 | OGG1 (Homo sapiens (Human)) | nM | 3560 |

###

# pIC50 values compiled below
molecular target: OGG1 (Homo sapiens (Human))
pIC50: −log10 of the molar value.
measurement-kind: pIC50

| compound | measured-target | experimental-value |
| --- | --- | --- |
| CNCCN(C)C(=O)c1cccc2c1[nH]c(=O)n2[C@H]1CC[C@@H](C(=O)Nc2ccc(C)c(OC)c2)CC1 | OGG1 (Homo sapiens (Human)) | 8.09 |
| COc1cc(NC(=O)[C@H]2CC[C@@H](n3c(=O)[nH]c4c(C(=O)NCCCN)cccc43)CC2)ccc1C | OGG1 (Homo sapiens (Human)) | 9.55 |
| COc1ccc(NC(=O)[C@H]2CC[C@@H](n3c(=O)[nH]c4c(OC)cccc43)CC2)cc1 | OGG1 (Homo sapiens (Human)) | 7.13 |
| COc1cc(NC(=O)[C@H]2CC[C@@H](n3c(=O)[nH]c4c(O)cccc43)CC2)ccc1C | OGG1 (Homo sapiens (Human)) | 7.75 |
| COc1cc(NC(=O)[C@H]2CC[C@@H](n3c(=O)[nH]c4c(N(C)C5CCN(C)C5)cccc43)CC2)ccc1C (stereo partly drawn) | OGG1 (Homo sapiens (Human)) | 7.54 |
| CCN(CC)C(=O)c1cnn(-c2cccc3c2[nH]c(=O)n3C2CCN(C(=O)Nc3ccc(I)cc3)CC2)c1 | OGG1 (Homo sapiens (Human)) | 5.75 |
| COc1ccc(NC(=O)N2CCC(n3c(=O)[nH]c4c(Br)cccc43)C(O)C2)cc1Cl (stereo not drawn) | OGG1 (Homo sapiens (Human)) | 5.30 |
| N#Cc1ccc(NC(=O)[C@H]2CC[C@@H](n3c(=O)[nH]c4c(Br)cccc43)CC2)cc1Cl | OGG1 (Homo sapiens (Human)) | 5.44 |
| COc1cc(NC(=O)[C@H]2CC[C@@H](n3c(=O)[nH]c4c(Br)cccc43)CC2)ccc1C | OGG1 (Homo sapiens (Human)) | 7.64 |
| O=c1[nH]c2c(Br)cccc2n1[C@H]1CC[C@@H](C(=O)Nc2cccc3[nH]ccc23)CC1 | OGG1 (Homo sapiens (Human)) | 5.97 |
| O=C(Nc1ccc(Cl)c(Cl)c1)N1C2CCC1CC(n1c(=O)[nH]c3c(Br)cccc31)C2 (stereo not drawn) | OGG1 (Homo sapiens (Human)) | 7.17 |
| Cc1cc(NC(=O)N2C3CCC2CC(n2c(=O)[nH]c4c(-c5ccc(CO)nc5)cccc42)C3)ccc1I (stereo not drawn) | OGG1 (Homo sapiens (Human)) | 7.24 |
| NCc1ccc(-c2cccc3c2[nH]c(=O)n3C2CCN(C(=O)Nc3ccc(Cl)c(Cl)c3)CC2)cc1 | OGG1 (Homo sapiens (Human)) | 5.60 |
| O=c1[nH]c2c(Br)cccc2n1[C@H]1CC[C@@H](C(=O)Nc2ccc3ncccc3c2)CC1 | OGG1 (Homo sapiens (Human)) | 7.18 |
| COc1ccc(NC(=O)[C@H]2CC[C@@H](n3c(=O)[nH]c4c(Cl)cccc43)CC2)cc1 | OGG1 (Homo sapiens (Human)) | 7.44 |

Ref: patent US11970474B2
